tested on: Puccinia triticina; assay: Use Example 15: activity against Puccinia triticina (PUCCRT, brown rust on wheat) in field; assay type: in vivo; conditions: Table 8; Abbot's formula; B23; 150 g a.i./ha; untreated infection 75%
measurement.type: Efficacy, % (%)
Give bare numbers, in %.

compound | numeric.value
CNC(=O)/C(=N/OC)c1cccc(C)c1CO/N=C(\COC)c1c(F)cc(OC)cc1F | 97

Would you mind giving Efficacy, % for every compound in the list below?
1. CO/C=C(/C(=O)OC)c1cccc(C)c1CO/N=C(\COC)c1c(F)cc(F)cc1F
2. COC/C(=N\OCc1c(C)cccc1/C(=N\OC)C(=O)OC)c1c(F)cc(F)cc1F

[97, 40]

Tell us which Efficacy, % value is on record for CNC(=O)/C(=N/OC)c1cccc(C)c1CO/N=C(\COC)c1c(F)cc(F)cc1F
89

The measurements presented in this section are drawn from patent US20260317272A1.
